The values you see were collected from BindingDB's records for doi:10.1016/S0960-894X(00)80655-1.

# Assayed system: Polyunsaturated fatty acid 5-lipoxygenase (Cavia porcellus)
# Assay comment: Inhibition of [14C]arachidonic acid conversion to 5-HETE by broken cell 5-LO isolated from guinea pig PMN
Readout label: IC50 (nM)

INSERT INTO assay_data (line_notation, readout_value) VALUES
  ('Cc1cc(=O)n(CCOc2ccc3c(c2)Nc2ccccc2S3)[nH]1', 57);

[A] O=c1c2c([nH]n1CCOc1ccc3ccccc3c1)CCCC2
[B] O=c1c2c([nH]n1CCOc1ccc3ccccc3c1)CCC2
Between the entries labelled A and B , which has a larger IC50 value on record? Returns: label corresponding to the selected item.
B
(B: 480 nM, A: 310 nM)
